The measured values listed here are drawn from patent US20260108546A1.

- Experimental system: hGIP-R (Homo sapiens, UniProt P48546)
- Construct: expressed in transfected cells; host or cells: HEK-293 clonal cell lines
- Experiment: Functional hGIP-R Assay (cAMP formation, HTRF)
- Type: cell-based
- Cond: cAMP efficacy; percent of maximal response to GIP(1-42)OH; 37° C., 0.1% bovine casein; arithmetic mean ± SEM
Measured attribute: Emax (%)

| Molecule | Experimental system | Emax / % |
| --- | --- | --- |
| Cn1cc(C[C@@H](NC(=O)[C@H]2C[C@@H]2c2ccc(-c3cnc4nccn4c3)cc2)C(=O)NC(C)(C)Cn2nc(C(F)(F)F)cc2-c2cnn(C)c2)cn1 | hGIP-R (Homo sapiens, UniProt P48546) | 91.9 |

P: Cn1cc(C[C@@H](NC(=O)[C@H]2C[C@@H]2c2ccc(-c3cnc4nn(C)cc4c3)cc2)C(=O)NC(C)(C)Cn2nc(C(F)(F)F)cc2-c2ccn(C)c(=O)c2)cn1
Q: Cn1cc2cc(-c3ccc([C@H]4C[C@@]45CCN([C@H](Cc4cnn(C(F)F)c4)C(=O)NC(C)(C)Cn4nc(C(F)(F)F)cc4-c4ccc(=O)n(CC(F)(F)F)c4)C5=O)cc3)cnc2n1
Ask: Problem: Given the entries P and Q , determine which has the lower reported Emax. Identify your pick by its label.
Result: Q
(Q: 68.5%, P: 98.4%)

====

- Experimental system: hGIP-R (Homo sapiens, UniProt P48546)
- Construct: expressed in transfected cells; host or cells: HEK-293 clonal cell lines
- Experiment: Functional hGIP-R Assay (cAMP formation, HTRF)
- Assay type: cell-based
- Cond: cAMP potency; HEK-293 cells expressing hGIP-R; incubated at 37° C. in the presence of 0.1% bovine casein; geometric mean; read-out: Human GIP-R EC50, nM (SEM, n)
Measured attribute: EC50 (nM)

| Molecule | Units symbol | EC50 |
| --- | --- | --- |
| [2H]C([2H])([2H])n1cc(-c2cc(C(F)(F)F)nn2CC(C)(C)NC(=O)[C@@H](Cc2cnn(C(F)F)c2)N2CC[C@@]3(C[C@@H]3c3ccc(-c4cnc5nn(C)cc5c4)cc3)C2=O)ccc1=O | nM | 33.5 |

P: Cn1cc2cc(-c3ccc([C@H]4C[C@@]45CCN([C@H](Cc4cnn(C(F)F)c4)C(=O)NC(C)(C)Cn4nc(C(F)(F)F)cc4-c4cc(C(F)(F)F)c(=O)n(C)c4)C5=O)cc3)cnc2n1
Q: CN1CC(n2cc3cc(-c4ccc([C@H]5C[C@@]56CCN([C@H](Cc5cnn(C(F)F)c5)C(=O)NC(C)(C)Cn5nc(C(F)(F)F)cc5-c5cc(F)c(=O)n(C)c5)C6=O)c(F)c4)cnc3n2)C1 (single isomer, unassigned; isomer 1)
Ask: Problem: Given the entries P and Q , determine which has the lower reported EC50. Identify your pick by its label.
Result: Q

A: Cc1nc(C2CC2)nc(O)c1-c1cc(C(F)(F)F)nn1CC(C)(C)NC(=O)[C@@H](Cc1cnn(C(F)F)c1)N1CC[C@@]2(C[C@@H]2c2ccc(-c3cnc4nn(C)cc4c3)cc2)C1=O
B: CC(C)(Cc1ccc(F)cc1)NC(=O)[C@@H](Cc1cnc2ncccn12)NC(=O)[C@H]1C[C@@H]1c1ccc(-c2cnc3nccn3c2)cc1
Ask: Which of the two gives a bigger number for EC50: A or B ? Identify your pick by its label.
Result: A
(A: 103 nM, B: 52.7 nM)

====

- Experimental system: hGIP-R (Homo sapiens)
- Construct: expressed in transfected cells; host or cells: HEK-293 clonal cell lines
- Experiment: Functional hGIP-R Assay (cAMP formation, HTRF)
- Type: cell-based
- Cond: cAMP efficacy; percent of maximal response to GIP(1-42)OH; 37° C., 0.1% bovine casein; arithmetic mean ± SEM
Measured attribute: Emax (%)

Check out these entries, answers already filled in.
| Compound | Units symbol | Emax |
| --- | --- | --- |
| Cc1c(-c2cc(C(F)(F)F)nn2CC(C)(C)NC(=O)[C@@H](Cc2cnn(C(F)F)c2)N2CC[C@@]3(C[C@@H]3c3ccc(-c4cnc5nn(C)cc5c4)cc3)C2=O)cn(C)c(=O)c1C#N | % | 85.2 |
| Cn1cc(C[C@@H](NC(=O)[C@H]2C[C@@H]2c2ccc(-c3cnc4nn(C)cc4c3)cc2)C(=O)NC(C)(C)Cn2nc(C(F)(F)F)cc2-c2cccc(=O)[nH]2)cn1 | % | 128 |
| Cn1cc(-c2cc(C(F)(F)F)nn2CC(C)(C)NC(=O)[C@@H](Cc2cnn(C(F)F)c2)N2CC[C@@]3(C[C@@H]3c3ccc(-c4cnc5nc(C(C)(C)O)ccc5c4)cc3)C2=O)ccc1=O (single isomer, unassigned; isomer 1) | % | 89 |

A: Cc1nc(-c2cnc3nc(C4CC4)cn3c2)ccc1[C@H]1C[C@@]12CCN([C@H](Cc1cnn(C(F)F)c1)C(=O)NC(C)(C)Cn1nc(C(F)(F)F)cc1-c1cnc(C(C)(C)OP(=O)(O)O)nc1)C2=O
B: Cn1cc2cc(-c3ccc([C@H]4C[C@@]45CCN([C@H](Cc4cnn(C(F)F)c4)C(=O)NC(C)(C)Cn4nc(C(F)(F)F)cc4-c4ccc(=O)n(C)c4)C5=O)cc3)cnc2n1
C: Cc1ncc(-c2cc(C(F)(F)F)nn2CC(C)(C)NC(=O)[C@@H](Cc2cnn(C(F)F)c2)N2CCC3(CC3c3ccc(-c4cnc5nn(C)cc5c4)nc3C)C2=O)cn1 (single isomer, unassigned; isomer 1)
Ask: Parameters: sort_field (Emax), sort_dir (desc). Present the labels in the sequence the task asks for.
Result: A, B, C
(A: 95.7%, B: 62.1%, C: 28%)

P: COC(=O)c1cc(C(F)(F)F)nn1CC(C)(C)NC(=O)[C@@H](Cc1cnn(C)c1)NC(=O)[C@H]1C[C@@H]1c1ccc(-c2cnc3nc(C(F)(F)F)cn3c2)cc1
Q: [2H]C([2H])([2H])n1cc(C[C@H](C(=O)NC(C)(C)Cn2nc(C(F)(F)F)cc2-c2cnc(C)nc2)N2CC[C@@]3(C[C@@H]3c3ccc(-c4cnc5nn(C)cc5c4)cc3Cl)C2=O)cn1 (single isomer, unassigned; isomer 1)
R: COc1nnc(C)cc1-c1cc(C(F)(F)F)nn1CC(C)(C)NC(=O)[C@@H](Cc1cnn(C(F)F)c1)N1CC[C@@]2(C[C@@H]2c2ccc(-c3cnc4nn(C)cc4c3)nc2C)C1=O
Ask: Would you mind ranking these compounds by ascending Emax? Present the labels in the sequence the task asks for.
Result: R, Q, P
(R: 35.4%, Q: 80.3%, P: 133%)

====

- Experimental system: hGIP-R (Homo sapiens)
- Construct: expressed in transfected cells; host or cells: HEK-293 clonal cell lines
- Sequence (P48546 22-466): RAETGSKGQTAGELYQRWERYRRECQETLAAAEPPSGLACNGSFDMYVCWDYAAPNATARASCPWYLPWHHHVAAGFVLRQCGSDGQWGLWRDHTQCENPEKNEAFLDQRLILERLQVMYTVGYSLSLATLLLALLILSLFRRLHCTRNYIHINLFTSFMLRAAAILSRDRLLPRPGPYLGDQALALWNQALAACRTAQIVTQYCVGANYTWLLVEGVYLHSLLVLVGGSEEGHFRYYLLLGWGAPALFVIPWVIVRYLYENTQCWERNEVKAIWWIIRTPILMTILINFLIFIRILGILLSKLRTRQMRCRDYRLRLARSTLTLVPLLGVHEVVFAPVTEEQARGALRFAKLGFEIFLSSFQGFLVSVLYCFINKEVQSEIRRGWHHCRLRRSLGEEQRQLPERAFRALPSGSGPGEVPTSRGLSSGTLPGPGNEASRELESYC
- Experiment: Functional hGIP-R Assay (cAMP formation, HTRF)
- Format: cell-based
- Cond: cAMP efficacy; percent of maximal response to GIP(1-42)OH; 37° C., 0.1% bovine casein; arithmetic mean ± SEM
Measured attribute: Emax (%)

P: CN(C(=O)[C@H]1C[C@@H]1c1ccc(-c2cnc3nn(C)cc3c2)cc1)[C@H](Cc1cnn(C)c1)C(=O)NC(C)(C)Cn1nc(C(F)(F)F)cc1-c1ccc(=O)n(C)c1
Q: Cc1cn2cc(-c3ccc([C@H]4C[C@@]45CCN([C@H](Cc4cnn(C(F)F)c4)C(=O)NC(C)(C)Cn4nc(C(F)(F)F)cc4-c4cc(F)c(=O)n(C)c4)C5=O)c(F)c3)cnc2n1
Ask: Which of the two gives a bigger number for Emax: P or Q ? Identify your pick by its label.
Result: P
(P: 117%, Q: 70.9%)

I: [2H]C([2H])([2H])n1cc(C[C@H](C(=O)NC(C)(C)Cn2nc(C(F)(F)F)cc2-c2ccc(C)nc2)N2CC[C@@]3(C[C@@H]3c3ccc(-c4cnc5nc(C6CC6)cn5c4)nc3C)C2=O)cn1
II: COC(=O)N(C)c1cc([C@H]2C[C@@H]2C(=O)N[C@H](Cc2cnn(C(F)F)c2)C(=O)NC(C)(C)Cn2nc(C(F)(F)F)cc2-c2cc(F)c(=O)n(C)c2)c(F)cc1O
Ask: Problem: Given the entries I and II , determine which has the lower reported Emax. Identify your pick by its label.
Result: II
(II: 25.5%, I: 112%)

a: Cn1cc(C[C@@H](NC(=O)[C@H]2C[C@@H]2c2ccc(-c3cnc4nn(C)cc4c3)cc2)C(=O)NC(C)(C)Cn2nc(C(F)(F)F)cc2-c2cc3c(=O)[nH]cnn3c2)cn1
b: CN(C(=O)[C@H]1C[C@@H]1c1ccc(-c2cnc3nn(C(F)(F)F)cc3c2)cc1)[C@H](Cc1cnn(C)c1)C(=O)NC(C)(C)Cn1nc(C(F)(F)F)cc1-c1ccc(=O)n(C)c1
c: Cn1cc2cc(-c3ccc([C@H]4C[C@@]45CCN([C@H](Cc4cnn(C(F)F)c4)C(=O)NC(C)(C)Cn4nc(C(F)(F)F)cc4-c4cc(F)c(=O)n(C)c4)C5=O)c(F)c3)cnc2n1 (single isomer, unassigned; isomer 1)
Ask: Would you mind ranking these compounds by ascending Emax? Present the labels in the sequence the task asks for.
Result: b, c, a

a: Cn1cc(C[C@@H](NC(=O)[C@H]2C[C@@H]2c2ccc(-c3cnc4nn(C)cc4c3)cc2)C(=O)NC(C)(C)Cn2nc(C(F)(F)F)cc2-c2n[nH]cc2F)cn1
b: Cn1cc2cc(-c3ccc([C@H]4C[C@@]45CCN([C@H](Cc4cnn(C(F)F)c4)C(=O)NC(C)(C)Cn4nc(C(F)(F)F)cc4-c4ccc(P(C)(C)=O)cc4)C5=O)c(Cl)c3)cnc2n1
Ask: Problem: Given the entries a and b , determine which has the lower reported Emax. Identify your pick by its label.
Result: b
(b: 50%, a: 103%)
